The measured values listed here are drawn from patent US5837728A.

# Tested on: sebaceous gland
# Procedure Summary: Oral hamster sebaceous gland reduction assay
# Assay type: in vivo, male Syrian golden hamsters
# Parameters: key to the marks not given beside the values
# Measurement Setup: 32 mg/kg

Molecule	Tested System	Sebaceous gland reduction
CCCCCCCCCC(=O)OCC(=O)COC(=O)/C=C(C)/C=C/C=C(C)\C=C\C1=C(C)CCCC1(C)C	sebaceous gland	+++
COc1ccc(C(=O)COC(=O)/C=C(C)/C=C/C=C(C)\C=C\C2=C(C)CCCC2(C)C)cc1	sebaceous gland	+++
CC1=C(/C=C/C(C)=C/C=C/C(C)=C\C(=O)O)C(C)(C)CCC1 [13-cis-retinoic acid]	sebaceous gland	++
CC1=C(/C=C/C(C)=C/C=C/C(C)=C/C(=O)O)C(C)(C)CCC1 [all-trans-retinoic acid, reference compound]	sebaceous gland	+++
